System: VDR:RXRa (NR concentration 270 nM, RXRa partner concentration 90 nM)
Test: PBM binding z-score (relative to random genomic background probes); higher = stronger binding; sequences stand for … in GC…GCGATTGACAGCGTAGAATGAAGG
readout.name: PBM binding z-score

Give the reported PBM binding z-score for ACTAGCAGGCCAACTTTGGGTCACTCAAACAAAG (system: VDR:RXRa (NR concentration 270 nM, RXRa partner concentration 90 nM)). 0.536

Observed PBM binding z-score on VDR:RXRa (NR concentration 270 nM, RXRa partner concentration 90 nM) for ATCTCTAGGTAAAGATAGTTCAGTGACTGCAAAT , please. 1.05

Provide value of PBM binding z-score for this record tested with VDR:RXRa (NR concentration 270 nM, RXRa partner concentration 90 nM): CAGACTAGGTCACGAAAGGTCAAAGTCGAATGAC 6.8

Identify the measured PBM binding z-score of CAAACTAGGTCACGAAAGGCCAAAGTCGAATGAC for VDR:RXRa (NR concentration 270 nM, RXRa partner concentration 90 nM). 4.15

Provide value of PBM binding z-score for this record tested with VDR:RXRa (NR concentration 270 nM, RXRa partner concentration 90 nM): AGAATGAGGATAAGATCAGGGAAACAGAATACAT -0.0497

Give the reported PBM binding z-score for TCTATTAGCTGATTAGGGCAACCGAAACAGCGGA (system: VDR:RXRa (NR concentration 270 nM, RXRa partner concentration 90 nM)). 0.11

Give the reported PBM binding z-score for CGAACTAGGTCATTGACAGGACAGTGATTAGTAA (system: VDR:RXRa (NR concentration 270 nM, RXRa partner concentration 90 nM)). 2.47

Query PBM binding z-score on VDR:RXRa (NR concentration 270 nM, RXRa partner concentration 90 nM) for ATCGAAAGGTCGACGAGGTGAGTATCCACCGTTT 5.24

Reported PBM binding z-score for VDR:RXRa (NR concentration 270 nM, RXRa partner concentration 90 nM), given AGACTGAGGTTATTAAGATCAGGGAATTGCGGTC ? 2.39

API: value(readout=PBM binding z-score, system=VDR:RXRa (NR concentration 270 nM, RXRa partner concentration 90 nM)) for record GCTGCTAGGTCAACTGATGGGCAGCTAAAGCTCG 1.09

Tell me reported PBM binding z-score for ATCTCCAGGTAAAGTTCAGTGAAAGATCGATAGA , tested with VDR:RXRa (NR concentration 270 nM, RXRa partner concentration 90 nM). 1.83

Find the measured PBM binding z-score: item TGTCGGAGGACACGAAGGTCAGAGCTTTCCAGAG , target or system VDR:RXRa (NR concentration 270 nM, RXRa partner concentration 90 nM). 2.42

Item: GATACAGCGTCAGCTAGAGGCCAGAGTATGGAAA Test system: VDR:RXRa (NR concentration 270 nM, RXRa partner concentration 90 nM) Read-out: PBM binding z-score Value: ? -0.922

Reported PBM binding z-score for VDR:RXRa (NR concentration 270 nM, RXRa partner concentration 90 nM), given ACGATTAGTTGAGACGAGGGCAACCGATAGGTTG ? 0.249

For VDR:RXRa (NR concentration 270 nM, RXRa partner concentration 90 nM), provide PBM binding z-score of ATACCAAGGTGATGGTGAGGTCGTTGATACTAAC please. 3.28

Give recorded PBM binding z-score with VDR:RXRa (NR concentration 270 nM, RXRa partner concentration 90 nM) for the following sequence: TCTGGTTGGTCACGGAGGTCACACACGACGGGTA 5.92

Short answer please: PBM binding z-score, VDR:RXRa (NR concentration 270 nM, RXRa partner concentration 90 nM), entry AGAACGAGGGCAATGAGTTGATAGCACGGGTGGC 4.96

Please provide the recorded PBM binding z-score for TCTTGTAGATCAAGCAGTTTAAGAAAGCCTGAGT , tested on VDR:RXRa (NR concentration 270 nM, RXRa partner concentration 90 nM). 0.549

Form entry - test system: VDR:RXRa (NR concentration 270 nM, RXRa partner concentration 90 nM); read-out: PBM binding z-score; sequence: CCAACTGGGCCATTCAGAGGTCATTGATCATATG 3.92

Which measured PBM binding z-score belongs to ACTCGGAGGACAATGGTCAGAGCTACGCCAGTGA , tested on VDR:RXRa (NR concentration 270 nM, RXRa partner concentration 90 nM)? -0.697

So what PBM binding z-score did AGAACGAGGGCAATGGGTTGATAGCACGGGTGGC get with VDR:RXRa (NR concentration 270 nM, RXRa partner concentration 90 nM)? 5.47

Form: Entry = ATCTCTAGGTAAAGATAGTTGAGTGAATGCAAAT | System = VDR:RXRa (NR concentration 270 nM, RXRa partner concentration 90 nM) | PBM binding z-score = ____ 0.375

Please tell me: PBM binding z-score of ACTATTGGTTGACTTAGGGCAACCGATACGACGC , system VDR:RXRa (NR concentration 270 nM, RXRa partner concentration 90 nM)? 0.175

Provide the documented PBM binding z-score with VDR:RXRa (NR concentration 270 nM, RXRa partner concentration 90 nM) as the system for TAGCCTAGGTCAGATCGGGCCAGTAAACGCTATA 0.5

Query for VDR:RXRa (NR concentration 270 nM, RXRa partner concentration 90 nM): what PBM binding z-score does the record show for TCGAGTAGGTTACCAATGGGGCATTCGGCTTTCT ? 0.0858

Under VDR:RXRa (NR concentration 270 nM, RXRa partner concentration 90 nM): PBM binding z-score value of TCATATAGGTAAACAGGTGAAAGTACGTAAGTTA ? 1.48

Request - read-out PBM binding z-score | tested on VDR:RXRa (NR concentration 270 nM, RXRa partner concentration 90 nM) | sequence TTACCAACGTGAGCTGAGGTCGTTGATCCAACTC 1.21

Param readout= PBM binding z-score; system= VDR:RXRa (NR concentration 270 nM, RXRa partner concentration 90 nM); entry= CGAACTAGGTCATTGCCAGGACAGTGAATAGTAA ; returns value. 2.42

Quick check: PBM binding z-score on VDR:RXRa (NR concentration 270 nM, RXRa partner concentration 90 nM), item AATCAAAGTTCAGGACGAGGTAACGTAAAGCACG ? 3

So what PBM binding z-score did CCTCGGAGGACAACAGGAGGACAGAGCTGCCAGA get with VDR:RXRa (NR concentration 270 nM, RXRa partner concentration 90 nM)? -0.461

Query for VDR:RXRa (NR concentration 270 nM, RXRa partner concentration 90 nM): what PBM binding z-score does the record show for AGAATGAGGTTAAGATCAGAGAAACAGAATACAT ? 1.11

What is its PBM binding z-score for VDR:RXRa (NR concentration 270 nM, RXRa partner concentration 90 nM)? Entry: CCTTACGGGTCACGAGGTTACAGCACGACGAGCG 5.28

Please tell me: PBM binding z-score of GCTATTAGTTGAACGGGCAACCGAATGATTCTCG , system VDR:RXRa (NR concentration 270 nM, RXRa partner concentration 90 nM)? -0.187

So what PBM binding z-score did CAAACTAGGTTAAGAGGTCAAAGTCCGCTTCCCG get with VDR:RXRa (NR concentration 270 nM, RXRa partner concentration 90 nM)? 5.21

Find the measured PBM binding z-score: item AATACAGGGTCATCGTAGGCCAGATTACGCACAG , target or system VDR:RXRa (NR concentration 270 nM, RXRa partner concentration 90 nM). 5.22

Recorded PBM binding z-score for CAAACTAGGTCACCGGAAGATCAAAGTCCGCATG with VDR:RXRa (NR concentration 270 nM, RXRa partner concentration 90 nM), please? 2.62

Find the measured PBM binding z-score: item CAAACTAGTTCACAGAGGTCAAAGTCCGTGCGTA , target or system VDR:RXRa (NR concentration 270 nM, RXRa partner concentration 90 nM). 7.47

Test system VDR:RXRa (NR concentration 270 nM, RXRa partner concentration 90 nM); read-out PBM binding z-score; what value for CCTCGCAGGCCAGGGTCACTCAAGCATTTCGCTT ? 2.41

Please tell me: PBM binding z-score of CCGACTGGGGCATAAGGTTACCAGAAGCCAGCCC , system VDR:RXRa (NR concentration 270 nM, RXRa partner concentration 90 nM)? 0.214

Kindly state the measured PBM binding z-score obtained for CCTCGGAGGACAACAGAAGGTCAGAGCTGCCAGA with VDR:RXRa (NR concentration 270 nM, RXRa partner concentration 90 nM). 1.35

Quick check: PBM binding z-score on VDR:RXRa (NR concentration 270 nM, RXRa partner concentration 90 nM), item CCTATTAGTTGACCATAAGCGCAACCGAAGCTCG ? 1.05

API: value(readout=PBM binding z-score, system=VDR:RXRa (NR concentration 270 nM, RXRa partner concentration 90 nM)) for record TCTTGTAGATCAATAGAGGTTAATAAAGTGCGCT 1.84

State its PBM binding z-score on VDR:RXRa (NR concentration 270 nM, RXRa partner concentration 90 nM): CCTAGCAGCCCAATCTGGGTCACTCAAGGCTTGA 0.11

Give the reported PBM binding z-score for TCAGACACGTGAAGGTAACTCAGGTACGCAGTCG (system: VDR:RXRa (NR concentration 270 nM, RXRa partner concentration 90 nM)). 0.881

Enter reported PBM binding z-score observed with VDR:RXRa (NR concentration 270 nM, RXRa partner concentration 90 nM) for ATCTCTAGGTAACCAACTTCAGTGAATGCCGAAC 0.0615

Entry ACTATTAGTTGACTTAGAGCAACCGATACGACGC , system VDR:RXRa (NR concentration 270 nM, RXRa partner concentration 90 nM): what PBM binding z-score was measured? -0.14

Write down the reported PBM binding z-score of TCATATAGGTAATACAGGTTAAAGTCGGCATCTA , test system: VDR:RXRa (NR concentration 270 nM, RXRa partner concentration 90 nM). 1.88

Request body: readout PBM binding z-score, system VDR:RXRa (NR concentration 270 nM, RXRa partner concentration 90 nM), query ATATGTAGGTTACATCCGCGTCATTCAGGCTATG . Return the value. 0.515
